# experimental_target: T1, Rhesus monkey glycophorin A on Rhesus monkey red blood cells (Rhesus monkey, UniProt A0A1D5Q349 20-150)
# T1 construct: whole, on cells; also called Rhesus RBC; monkey GPA
# T1 sequence: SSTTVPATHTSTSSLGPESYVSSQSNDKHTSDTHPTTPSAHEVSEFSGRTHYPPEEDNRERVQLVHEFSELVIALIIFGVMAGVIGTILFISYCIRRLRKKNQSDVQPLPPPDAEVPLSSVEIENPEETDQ
# assay_comment: FACS, RBC Rh03

| binder | fluorescence intensity |
| --- | --- |
| Hu6C12-6 (antibody, V domains shown, IgG format; VH.1f + Vk.1) VH: EVQLVQSGAEVKKPGASVKVSCKASGYTFTTYTIHWVRQAPGQGLEWMGYINPSSDYTRYNPKFKDRVTLTTDTSTSTAYMELRSLRSDDTAVYYCQTGTRDYWGQGTTVTVSS VL: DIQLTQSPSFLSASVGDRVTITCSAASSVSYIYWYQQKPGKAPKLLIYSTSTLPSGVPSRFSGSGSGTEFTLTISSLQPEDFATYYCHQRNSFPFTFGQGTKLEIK | 1540 |
| Hu6C12-2 (antibody, V domains shown, IgG format; VH.1b + Vk.1) VH: EVQLVQSGAEVKKPGASVKVSCKASGYTFTTYTIHWVRQAPGQGLEWMGYINPSSDYTRYNPKFKDRVTMTTDTSTSTAYMELRSLRSDDTAVYYCATGTRDYWGQGTTVTVSS VL: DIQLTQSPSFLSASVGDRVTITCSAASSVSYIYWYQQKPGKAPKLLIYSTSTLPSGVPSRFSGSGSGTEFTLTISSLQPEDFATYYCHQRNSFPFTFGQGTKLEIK | 1380 |
| Hu6C12-7 (antibody, V domains shown, IgG format; VH.1g + Vk.1) VH: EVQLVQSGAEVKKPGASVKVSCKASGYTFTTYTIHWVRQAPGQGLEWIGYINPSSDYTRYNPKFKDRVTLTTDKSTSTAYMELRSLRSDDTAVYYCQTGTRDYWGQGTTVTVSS VL: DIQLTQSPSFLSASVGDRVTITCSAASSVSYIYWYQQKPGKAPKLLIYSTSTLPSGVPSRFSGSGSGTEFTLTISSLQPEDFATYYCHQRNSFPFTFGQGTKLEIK | 1920 |
| Hu6C12-14 (antibody, V domains shown, IgG format; VH.1e + Vk.1a) VH: EVQLVQSGAEVKKPGASVKVSCKASGYTFTTYTIHWVRQAPGQGLEWMGYINPSSDYTRYNPKFKDRVTLTTDTSTSTAYMELRSLRSDDTAVYYCATGTRDYWGQGTTVTVSS VL: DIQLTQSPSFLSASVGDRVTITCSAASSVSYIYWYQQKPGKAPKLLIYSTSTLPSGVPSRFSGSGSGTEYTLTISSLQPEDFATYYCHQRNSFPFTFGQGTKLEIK | 1480 |
| Hu6C12-21 (antibody, V domains shown, IgG format; VH.1d + Vk.1b) VH: EVQLVQSGAEVKKPGASVKVSCKASGYTFTTYTIHWVRQAPGQGLEWMGYINPSSDYTRYNPKFKDRVTLTTDTSTSTAYMELRSLRSDDTAVYYCQRGTRDYWGQGTTVTVSS VL: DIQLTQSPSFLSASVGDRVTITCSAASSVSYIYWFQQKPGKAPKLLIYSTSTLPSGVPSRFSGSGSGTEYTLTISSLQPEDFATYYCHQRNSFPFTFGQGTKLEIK | 1340 |
| Hu6C12-3 (antibody, V domains shown, IgG format; VH.1c + Vk.1) VH: EVQLVQSGAEVKKPGASVKVSCKASGYTFTTYTIHWVRQAPGQGLEWMGYINPSSDYTRYNPKFKDRVTMTTDTSTSTAYMELRSLRSDDTAVYYCQTGTRDYWGQGTTVTVSS VL: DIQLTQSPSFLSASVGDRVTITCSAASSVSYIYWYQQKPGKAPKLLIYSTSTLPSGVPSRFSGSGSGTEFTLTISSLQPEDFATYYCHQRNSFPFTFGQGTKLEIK | 1600 |
| Hu6C12-16 (antibody, V domains shown, IgG format; VH.1g + Vk.1a) VH: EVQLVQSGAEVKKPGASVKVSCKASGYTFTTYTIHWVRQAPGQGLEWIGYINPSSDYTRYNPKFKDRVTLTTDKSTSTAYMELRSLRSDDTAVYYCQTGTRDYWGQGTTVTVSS VL: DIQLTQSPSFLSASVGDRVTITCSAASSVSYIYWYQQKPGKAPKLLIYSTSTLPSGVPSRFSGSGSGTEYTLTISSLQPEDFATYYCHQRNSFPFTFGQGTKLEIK | 1870 |
| Hu6C12-5 (antibody, V domains shown, IgG format; VH.1e + Vk.1) VH: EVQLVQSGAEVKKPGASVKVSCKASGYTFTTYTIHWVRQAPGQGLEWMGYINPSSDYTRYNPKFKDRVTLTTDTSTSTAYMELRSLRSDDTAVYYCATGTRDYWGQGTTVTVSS VL: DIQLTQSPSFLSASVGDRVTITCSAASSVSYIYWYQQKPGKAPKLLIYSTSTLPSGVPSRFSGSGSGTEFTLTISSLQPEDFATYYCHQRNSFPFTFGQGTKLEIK | 1560 |
| Hu6C12-12 (antibody, V domains shown, IgG format; VH.1c + Vk.1a) VH: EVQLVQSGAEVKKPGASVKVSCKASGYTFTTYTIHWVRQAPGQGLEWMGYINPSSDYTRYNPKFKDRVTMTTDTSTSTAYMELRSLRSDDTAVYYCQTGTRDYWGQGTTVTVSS VL: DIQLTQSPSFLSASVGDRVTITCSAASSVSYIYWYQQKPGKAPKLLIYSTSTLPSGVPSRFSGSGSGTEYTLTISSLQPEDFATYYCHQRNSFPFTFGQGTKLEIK | 1410 |
